Target: human serum albumin (HSA) (Homo sapiens)
Assay: Fluorescence ligand titration of HSA: quenching of intrinsic protein (Trp214) fluorescence, fitted Kd, n and FRET efficiency
Details: Kd, excitation 295 nm, no correction
Description: For absorbance and fluorescence, solutions of the ligand, protein, and protein‐ligand complexes at different concentrations were prepared using PBS 1x buffer. […] The fluorescence intensities of protein‐ligand complexes were corrected for inner‐filter effects based on the absorbance of the ligands at the excitation and emission wavelengths ( IDA,cor=IDA10^(Absex+Absem)/2 ).^[ [19] ^] The fluorescence of the ligands in the absence of HSA was also recorded at 100 µM concentration. […]
pKd: −log10 of the molar value.
# pKd >= 5 gives TRUE, anything below gives FALSE

>>> class_name("C[C@H](C(=O)O)c1ccc2c(c1)[nH]c1ccc(Cl)cc12 [(S)‐carprofen]")
"TRUE"
>>> class_name("Oc1ccc2ccccc2c1 [2‐naphthol]")
"TRUE"
>>> class_name("Oc1cccc2ccccc12 [1‐naphthol]")
"FALSE"

INPUT: Test whether the molecule O=C(O)c1c2ccccc2nc2ccccc12 [ACA, 9‐acridinecarboxylic acid] records pKd of 5 or higher.
OUTPUT: FALSE

INPUT: Do the same for NCCNc1cccc2ccccc12 [NNE, N‐(1‐naphthyl)ethylenediamine] please
OUTPUT: TRUE

INPUT: Do the same for O=C(O)COc1cccc2cccnc12 [QAA, (quinoline‐8‐yloxy)‐acetic acid] please
OUTPUT: FALSE

* * *

Biological target: human serum albumin (HSA) (Homo sapiens)
Assay: Fluorescence ligand titration of HSA: quenching of intrinsic protein (Trp214) fluorescence, fitted Kd, n and FRET efficiency
Details: corrected by fraction of ligand-bound protein; 295 nm excitation, IFE-corrected (carprofen: 280 nm)
Test readout: experimental FRET efficiency E (Eexp)
Answer using only a numeral; do not append any unit.

>>> test_result("C[C@H](C(=O)O)c1ccc2c(c1)[nH]c1ccc(Cl)cc12 [(S)‐carprofen]")
0.81

INPUT: Consider the compound shown here: O=C(O)COc1cccc2cccnc12 [QAA, (quinoline‐8‐yloxy)‐acetic acid] What is its recorded experimental FRET efficiency E (Eexp)?
OUTPUT: 0.60

INPUT: Do the same for Oc1ccc2ccccc2c1 [2‐naphthol] please
OUTPUT: 0.80

INPUT: Do the same for NCCNc1cccc2ccccc12 [NNE, N‐(1‐naphthyl)ethylenediamine] please
OUTPUT: 0.55

INPUT: Do the same for O=C(O)c1c2ccccc2nc2ccccc12 [protonated ACA, 9-Acridinecarboxylic acid (protonated)] please
OUTPUT: 0.63

INPUT: Do the same for O=C(O)c1c2ccccc2nc2ccccc12 [ACA, 9‐acridinecarboxylic acid] please
OUTPUT: 0.63

* * *

compounds and their reported Kd
Molecular target: human serum albumin (HSA) (Homo sapiens, UniProt P02768)
Sequence (P02768 25-609): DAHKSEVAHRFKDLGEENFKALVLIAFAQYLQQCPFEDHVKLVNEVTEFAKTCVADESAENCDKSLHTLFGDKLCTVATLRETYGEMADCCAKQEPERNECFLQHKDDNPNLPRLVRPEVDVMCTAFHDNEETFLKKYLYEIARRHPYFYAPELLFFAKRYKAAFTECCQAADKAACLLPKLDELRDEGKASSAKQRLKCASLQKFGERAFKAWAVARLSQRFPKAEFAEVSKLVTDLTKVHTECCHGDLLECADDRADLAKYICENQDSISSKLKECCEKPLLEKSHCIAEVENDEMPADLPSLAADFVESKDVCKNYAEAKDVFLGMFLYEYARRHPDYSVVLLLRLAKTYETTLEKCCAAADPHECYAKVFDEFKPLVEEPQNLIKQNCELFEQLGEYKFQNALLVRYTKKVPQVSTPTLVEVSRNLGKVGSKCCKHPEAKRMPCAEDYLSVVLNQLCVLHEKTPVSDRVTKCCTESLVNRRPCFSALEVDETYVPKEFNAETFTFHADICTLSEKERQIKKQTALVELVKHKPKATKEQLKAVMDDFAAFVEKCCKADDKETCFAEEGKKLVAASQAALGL
Test: Fluorescence ligand titration of HSA: quenching of intrinsic protein (Trp214) fluorescence, fitted Kd, n and FRET efficiency
Conditions: dissociation binding constant Kd, 5 µM HSA, PBS 1x, 25 °C; 295 nm excitation, IFE-corrected (carprofen: 280 nm)
Value expressed in µM; do not type the unit.

Reference set, count: 5
>>> test_result("Oc1cccc2ccccc12 [1‐naphthol]")
137
>>> test_result("NCCNc1cccc2ccccc12 [NNE, N‐(1‐naphthyl)ethylenediamine]")
3.5
>>> test_result("C[C@H](C(=O)O)c1ccc2c(c1)[nH]c1ccc(Cl)cc12 [(S)‐carprofen]")
1.8
>>> test_result("Oc1ccc2ccccc2c1 [2‐naphthol]")
6.6
>>> test_result("O=C(O)c1c2ccccc2nc2ccccc12 [ACA, 9‐acridinecarboxylic acid]")
15.5

INPUT: Consider the compound shown here: O=C(O)COc1cccc2cccnc12 [QAA, (quinoline‐8‐yloxy)‐acetic acid] What is its recorded Kd?
OUTPUT: 48
